test: Plasma pharmacokinetics (LC-MS/MS); assay type: in vivo, human; conditions: human, plasma, oral, 7 mg, cycle 2, day 1; QD 7 mg; read-out: AUC0–24h [%CV]
assayEndpoint: AUC(0-t) (ng·h/mL)
Just the number please, in ng·h/mL, no unit attached.

Entry CC(C)n1nc(-c2ccc3oc(N)nc3c2)c2c(N)ncnc21 [Sapanisertib] : reported AUC(0-t) = ?
351

====

assay: Plasma pharmacokinetics (LC-MS/MS); type: in vivo, human; conditions: human, plasma, oral, 20 mg, cycle 1, day 1; 20 mg
assayEndpoint: Cmax (ng/mL)
Give just the number in ng/mL; leave the unit off.

What value of Cmax has been recorded for this entry: CC(C)n1nc(-c2ccc3oc(N)nc3c2)c2c(N)ncnc21
154

====

assay: Plasma pharmacokinetics (LC-MS/MS); format: in vivo, human; details: human, plasma, oral, 30 mg, cycle 2, day 1; QW 30 mg; read-out: t½ (converted)
assayEndpoint: half-life (h)
The answer is to be given in h; state only the numeric part.

// half-life lookup, key: CC(C)n1nc(-c2ccc3oc(N)nc3c2)c2c(N)ncnc21
5.7

====

test: Plasma pharmacokinetics (LC-MS/MS); type: in vivo, human; details: human, plasma, oral, 9 mg, cycle 2, day 1; QDx3dQW 9 mg; read-out: t½ (converted)
assayEndpoint: half-life (h)
Your answer is read as h, so omit the unit and give the number.

Tell me the measured half-life of CC(C)n1nc(-c2ccc3oc(N)nc3c2)c2c(N)ncnc21 [Sapanisertib] , please.
6.9

====

experiment: Plasma pharmacokinetics (LC-MS/MS); assay type: in vivo, human; conditions: human, plasma, oral, 9 mg, cycle 1, day 1; 9 mg; read-out: AUC0–24h [%CV]
assayEndpoint: AUC(0-t) (ng·h/mL)
Report only the number, with the unit ng·h/mL understood.

Need AUC(0-t) of CC(C)n1nc(-c2ccc3oc(N)nc3c2)c2c(N)ncnc21 , thanks.
596

====

assay: Plasma pharmacokinetics (LC-MS/MS); type: in vivo, human; conditions: human, plasma, oral, 10 mg, cycle 1, day 1; 10 mg
assayEndpoint: Cmax (ng/mL)
Your answer is read as ng/mL, so omit the unit and give the number.

Record request: Cmax value, item CC(C)n1nc(-c2ccc3oc(N)nc3c2)c2c(N)ncnc21
48.4

====

experiment: Plasma pharmacokinetics (LC-MS/MS); format: in vivo, human; conditions: human, plasma, oral, 12 mg, cycle 2, day 1; QDx3dQW 12 mg; read-out: AUC0–24h [%CV]
assayEndpoint: AUC(0-t) (ng·h/mL)
Field: numeric (ng·h/mL). Do not append units.

Request the reported AUC(0-t) associated with CC(C)n1nc(-c2ccc3oc(N)nc3c2)c2c(N)ncnc21 [Sapanisertib]
707

====

experiment: Plasma pharmacokinetics (LC-MS/MS); assay type: in vivo, human; details: human, plasma, oral, 12 mg, cycle 1, day 1; 12 mg
assayEndpoint: Cmax (ng/mL)
Write the number in ng/mL without appending the unit.

Consider the compound CC(C)n1nc(-c2ccc3oc(N)nc3c2)c2c(N)ncnc21 and give its measured Cmax.
99.5

====

test: Plasma pharmacokinetics (LC-MS/MS); format: in vivo, human; settings: human, plasma, oral, 16 mg, cycle 2, day 1; QDx3dQW 16 mg; read-out: AUC0–24h [%CV]
assayEndpoint: AUC(0-t) (ng·h/mL)
Write the value in ng·h/mL as a bare number.

Which AUC(0-t) is listed for CC(C)n1nc(-c2ccc3oc(N)nc3c2)c2c(N)ncnc21 [Sapanisertib] ?
744
